# targetOrTestSystem: reverse transcriptase derived from Moloney-Murine Leukemia Virus (M-MLV) (Moloney murine leukemia virus)
# Construct: reverse transcriptase derived from Moloney-Murine Leukemia Virus; purchased Pharmacia K. K
# protocolSummary: Inhibiting activity against reverse transcriptase derived from M-MLV
# Format: biochemical
# conditionsUsed: 10 μM in the reaction mixture; read-out: Inhibition rate (reverse transcriptase derived from M-MLV)
Label YES when inhibition at 10 µM is at or above 60%; anything below gets NO.

| molecule | classAssignment |
| --- | --- |
| CCOc1cc(C=C2SC(=S)NC2=O)cc(CSc2ccccc2)c1O [Compound 6] | YES |
| O=C1Nc2ccccc2S(=O)(=O)C1=Cc1cc(Cc2ccccc2)c(O)c(Cc2ccccc2)c1 [Compound 5] | YES |
| O=C1NN(c2ccccc2)C(=O)C1=Cc1cc(Cc2ccccc2)c(O)c(Cc2ccccc2)c1 [Compound 20] | YES |
| CC(C)c1cc(C=C2SC(NCc3ccc(N)cc3)=NC2=O)cc(C(C)C)c1O [Compound 42] | NO |

Attention now turns to another entry.
Exam item: Say whether O=C1N=C(NCc2ccccc2)SC1=Cc1cc(Cc2ccccc2)c(O)c(Cc2ccccc2)c1 [Compound 26] shows inhibition at 10 µM of 60% or more.
Marked response: YES
